Each recorded value in this set is attributed to ChEMBL document CHEMBL2331396.

# Test Name: Cytotoxicity against human QSG7701 cells assessed as inhibition rate at 50 uM measured after 48 hrs by MTT assay
# Assay type: cell-based
# Run Parameters: read-out: INH
Is cytotoxicity at 48 h, 50 µM at least 20%? Then met. If not, not met.

* O=C(Nc1cccc(Cl)c1)Nc1ccc(-c2cc(=O)c3cc(F)ccc3o2)c(Cl)c1 | met
* CCc1ccc2oc(-c3ccc(NC(=O)Nc4cccc(Cl)c4)cc3Cl)cc(=O)c2c1 | not met
* O=C(Nc1cccc(Cl)c1)Nc1ccc(-c2cc(=O)c3ccc(O)cc3o2)c(Cl)c1 | met
* O=C(Nc1cccc(Cl)c1)Nc1ccc(-c2cc(=O)c3ccccc3o2)c(Cl)c1 | met
* COc1ccc2oc(-c3ccc(NC(=O)Nc4cccc(Cl)c4)cc3Cl)cc(=O)c2c1 | not met
* CCc1ccc2oc(-c3ccc(NC(=O)Nc4ccc(Cl)cc4)cc3Cl)cc(=O)c2c1 | met
* CCc1ccc2oc(-c3ccc(NC(=O)Cc4cccc(F)c4)cc3Cl)cc(=O)c2c1 | met
* CNC(=O)c1cc(Oc2ccc(NC(=O)Nc3ccc(Cl)c(C(F)(F)F)c3)cc2)ccn1 [SORAFENIB] | not met
* CCc1ccc2oc(-c3ccc(NC(=O)Cc4ccc(F)cc4)cc3Cl)cc(=O)c2c1 | not met
* COc1ccc2oc(-c3ccc(NC(=O)Nc4ccc(Cl)c(Cl)c4)cc3Cl)cc(=O)c2c1 | not met
